Would you mind telling me the reported T/C of each entry?
Test system: CD2F1 mice, L1210 leukemia ip, survival T/C
test: NCI In Vivo Anticancer Drug Screen. Data for tumor model L1210 Leukemia (intraperitoneal) in CD2F1 (CDF1) mice
assay.conditions: endpoint: mean survival time; dose: 100.0 mg/kg/injection; schedule: Q01DX001 (ip); vehicle: saline with Tween-80; higher = longer survival
Toxic doses and inconclusive results are not listed.

IN: Look up T/C of N#C/C(=C\C=C\c1cccc([N+](=O)[O-])c1)c1ccccc1 and report it.
OUT: 96 % of control

IN: Read off the recorded T/C for COc1cc2nc(/C=C/c3nc4cc(OC)c(OC)cc4[nH]3)[nH]c2cc1OC
OUT: 106 % of control

IN: Write down T/C measured for item O=C1c2ccccc2SCCC1C(O)c1ccccc1 (stereo not given)
OUT: 94 % of control

IN: Look up and report measured T/C for this entry: CCCCn1c(C)nc2c([N+](=O)[O-])cc(C(F)(F)F)cc21
OUT: 98 % of control

IN: Look up T/C of c1ccc(CNc2nnnc3ccccc23)cc1 and report it.
OUT: 100 % of control

IN: Note T/C for the compound shown: c1ccc(/C(N=NC(c2ccccc2)(c2ccccc2)c2ccccc2)=C(/N=NC(c2ccccc2)(c2ccccc2)c2ccccc2)c2ccccc2)cc1
OUT: 91 % of control

IN: Specify reported T/C for the compound shown: CC(=O)NC1C(OC(C)=O)OC(COC(c2ccccc2)(c2ccccc2)c2ccccc2)C(O)C1OC(C)=O (stereo not given)
OUT: 87 % of control

IN: Please indicate T/C recorded for CC1(C)CCC2(C)CC(C(=O)O)C(=O)C=C2C1 (stereo not given)
OUT: 100 % of control

IN: Supply T/C value. Item: CCOC(=O)C(CC)(C(=O)OCC)c1c(Cl)c(=O)oc2ccc(Cl)cc12
OUT: 100 % of control

IN: Input CSc1ccccc1N=Cc1cc(Cl)ccc1O , output reported T/C.
OUT: 96 % of control

IN: Identify measured T/C associated with CC(C)(C)C1=CC(=N/S(=O)(=O)c2ccccc2)/C(N=[N+]=[N-])=C(Cl)C/1=N\S(=O)(=O)c1ccccc1
OUT: 93 % of control

IN: In one line, give reported T/C of the entry Cc1ccc(-c2nn[nH]n2)cc1[N+](=O)[O-] .
OUT: 109 % of control

IN: Supply T/C value. Item: Cc1nc2ccccc2[nH]1
OUT: 102 % of control

IN: // fetch T/C given entry Nc1ncnc2c1ncn2CCC(=O)O
OUT: 94 % of control

IN: Please report T/C for the following compound: C/C(=C\C(=O)Nc1ccc(S(=O)(=O)F)cc1)c1ccc([N+](=O)[O-])cc1
OUT: 97 % of control

IN: Name the recorded T/C of the item O=C(O)CCCCCCCCCO in your answer.
OUT: 91 % of control

IN: Provide measured T/C value, entry: Fc1ccc(NC2(c3nnnn3C3CCCCC3)CCN(Cc3ccccc3)CC2)cc1
OUT: 95 % of control

IN: Using the record for CC(=O)Oc1c(Cl)cc(Cl)c(Cl)c1[N+](=O)[O-] , state its measured T/C.
OUT: 93 % of control

IN: Fill in reported T/C for this entry: CC1(CO)CCCC2(C)C3=CC(=O)CCC3CCC12 (stereo not given)
OUT: 95 % of control

IN: Identify T/C associated with the compound c1ccc(C2=C(c3ccccc3)OC(c3ccccc3)=C(c3ccccc3)O2)cc1
OUT: 89 % of control

IN: Please report T/C for the following compound: Clc1ccc(Sc2ccc(Cl)cc2)cc1
OUT: 94 % of control

IN: Give the reported T/C for this compound. c1ccc2c3c(ccc2c1)OCCOCCOCCOCCOc1ccc2ccccc2c1-3
OUT: 91 % of control

IN: Check the records and state T/C for O=CC(Cc1ccccc1)CC(O)c1ccccc1 (stereo not given)
OUT: 95 % of control

IN: Specify reported T/C for the compound shown: S=c1nc[nH]c2ccccc12
OUT: 93 % of control

IN: Kindly indicate its recorded T/C. Item: C1CCC2NN=NC2C1 (stereo not given)
OUT: 104 % of control

IN: Respond only with T/C recorded for COc1ccc(/C=C/c2ccccc2)cc1
OUT: 95 % of control

IN: State its T/C for this compound: COC(=O)C1OC(OC(C)=O)C(OC(C)=O)C(OC(C)=O)C1C(=O)OC (stereo not given)
OUT: 93 % of control

IN: Give the reported T/C for this compound. CC(C)(CO)C(O)C(=O)NC1CCCCC1 (stereo not given)
OUT: 98 % of control

IN: Answer with reported T/C of COc1ccc(C(O)(c2ccccc2)C(OC(=O)c2cc([N+](=O)[O-])cc([N+](=O)[O-])c2)c2ccccc2)cc1 (stereo not given)
OUT: 87 % of control

IN: Answer with the recorded T/C for the compound listed here: CCC1C(C)CNC1C (stereo not given)
OUT: 100 % of control

* * *

Tested on: CD2F1 mice, L1210 leukemia ip, survival T/C
test: NCI In Vivo Anticancer Drug Screen. Data for tumor model L1210 Leukemia (intraperitoneal) in CD2F1 (CDF1) mice
assay.conditions: endpoint: mean survival time; dose: 400.0 mg/kg/injection; schedule: Q01DX001 (ip); vehicle: saline with Tween-80
Toxic doses and inconclusive results are not listed. The calls were made as follows: active = survival T/C of 150% or more; inactive = T/C below 125% in these data.
Field 'call' accepts active, inactive

IN: Please state the recorded outcome for this compound: O=c1[nH]cc(NCCCCc2ccccc2)c(=O)[nH]1
OUT: inactive

IN: Answer briefly: the call reported for CCCCCCCCCCCCCCCCOc1ccc(C(=O)OC)cc1NS(=O)(=O)c1ccc(C(=O)O)cc1 in this assay.
OUT: inactive

IN: For O=C1N(C2CCCCC2)CC2C(c3ccccc3)N(c3ccccc3)NC12O (stereo unspecified) , what call appears in the results of this test?
OUT: inactive

IN: Answer briefly: the call reported for CN(C(=O)N(CCCl)N=O)C1CCCCC1 in this assay.
OUT: active

IN: Field: outcome | Entry: CC1(c2ccccc2)OCCO1
OUT: inactive

IN: Tell me the assay call for CCCCCCCCC(O)CCCCCCCCC(=O)O (stereo unspecified) please.
OUT: inactive

IN: Outcome? Oc1ccccc1/C=N\N=C\c1ccccc1O
OUT: inactive

IN: What was the test verdict on CC(C)(C)c1cc(Cc2cc(C(C)(C)C)c(O)c(C(C)(C)C)c2)cc(C(C)(C)C)c1O ?
OUT: inactive

IN: Tell me the recorded outcome of this test for CC(S(N)(=O)=O)S(N)(=O)=O .
OUT: inactive

IN: Can you look up the reported call for COc1ccc(/C=C/c2ccccc2)cc1 for me?
OUT: inactive

IN: Hi team, can someone confirm the assay call for c1ccc2c3c(ccc2c1)OCCOCCOCCOCCOc1ccc2ccccc2c1-3 ?
OUT: inactive

* * *

For each record, write down the corresponding T/C.
System: CD2F1 mice, L1210 leukemia ip, survival T/C
test: NCI In Vivo Anticancer Drug Screen. Data for tumor model L1210 Leukemia (intraperitoneal) in CD2F1 (CDF1) mice
assay.conditions: endpoint: mean survival time; dose: 100.0 mg/kg/injection; schedule: Q01DX009 (ip); vehicle: saline with Tween-80; higher = longer survival
Toxic doses and inconclusive results are not listed.

IN: Note T/C for the molecule shown: O=[N+]([O-])c1ccc2c(c1)C(Br)c1cc(Br)ccc1-2 (stereo not given)
OUT: 93 % of control

IN: Give a short answer stating reported T/C for COC(C(N)=O)(c1ccccc1)C(F)(F)F (stereo not given) .
OUT: 101 % of control

IN: Dear colleague, please send me the reported T/C for c1ccc(CCNCc2ccccc2)cc1 when you can.
OUT: 88 % of control

IN: Supply reported T/C belonging to this molecule: CCC1(CC)CCC(Br)C(Br)C1 (stereo not given)
OUT: 94 % of control

IN: Determine its reported T/C: COc1cccc(/C(C)=N\NC(=O)c2ccccc2)c1
OUT: 88 % of control

* * *

Would you mind telling me the reported T/C of each entry?
Tested on: CD2F1 mice, L1210 leukemia ip, survival T/C
test: NCI In Vivo Anticancer Drug Screen. Data for tumor model L1210 Leukemia (intraperitoneal) in CD2F1 (CDF1) mice
assay.conditions: endpoint: mean survival time; dose: 400.0 mg/kg/injection; schedule: Q04DX003 (ip); vehicle: saline with Tween-80; higher = longer survival
Inconclusive results and toxic doses are left out.

IN: Give the reported value of T/C for this record: CCC(C)C(C)OC(=O)c1cc([N+](=O)[O-])cc([N+](=O)[O-])c1 (configuration not stated)
OUT: 103 % of control

IN: Supply recorded T/C for COc1ccc(C(CO)=C(c2ccc(OC)cc2)c2ccc(OC)cc2)cc1 here.
OUT: 95 % of control

IN: Report T/C, nothing else, for this molecule: Cc1c2ccccc2c(CN2CC(O)CC2C(=O)O)c2ccccc12 (configuration not stated)
OUT: 87 % of control

IN: Give me measured T/C, please, for this molecule: Nc1cc(Nc2ccc(Cl)cc2)c2nc(-c3ccc(Cl)cc3)c(-c3ccc(Cl)cc3)nc2n1
OUT: 107 % of control

IN: Annotate the molecule CCOC(=O)c1cnc[nH]c1=O with its measured T/C.
OUT: 96 % of control

IN: Report measured T/C; entry is O=C(O)C1CC2C=CC1C2 (configuration not stated)
OUT: 94 % of control

IN: Note down T/C recorded for CC(SC(C)c1ccccc1)c1ccccc1 (configuration not stated)
OUT: 90 % of control

IN: Please report T/C for the following molecule: CC(C)OC(CCCl)c1ccc(Cl)cc1 (configuration not stated)
OUT: 97 % of control

IN: Please report T/C for the following molecule: COC(=O)/C=C/C=C/C(=O)OC
OUT: 103 % of control

IN: Give the value of T/C reported for the following: CC(C)CC(NC(=O)c1ccccc1)C(N)=O (configuration not stated)
OUT: 92 % of control

IN: Specify T/C for CN1C2CCC1CNC2 and stop.
OUT: 103 % of control

IN: Check the records and state T/C for N#[N+]c1cn(C2CC(O)C(CO)O2)c(=O)[nH]c1=O (configuration not stated)
OUT: 118 % of control

IN: Indicate its recorded T/C; the molecule in question is O=CNc1cccc(Cl)c1
OUT: 90 % of control

IN: # return recorded T/C for input CC12OCCN1CC(COc1ccccc1)O2 (configuration not stated)
OUT: 110 % of control

IN: Identify the reported T/C for the following entry. CCOC(=O)C(C(C)=O)c1cc(NS(=O)(=O)c2ccccc2)ccc1O (configuration not stated)
OUT: 105 % of control

IN: Provide measured T/C value, entry: CCOC(=O)Nc1ccc(C(=O)O)c(O)c1
OUT: 100 % of control

IN: Complete the entry with T/C for OCCNCCO
OUT: 107 % of control

IN: Please give measured T/C of the following entry: CCCCOP(=O)(NCCOC)OCCCC
OUT: 103 % of control

IN: Look up and state reported T/C for CC(=O)C(C(c1ccccc1)C1CCCc2ccccc21)N1CCOCC1 (configuration not stated)
OUT: 101 % of control

IN: Please report T/C for the following molecule: CCCNC(=O)C1C2CCC(CC2)C1C(=O)NCCC (configuration not stated)
OUT: 95 % of control

IN: Indicate the recorded T/C value for this molecule: Cc1cc(NC(=O)SCCOC(=O)COc2ccc(Cl)cc2)ccc1Cl
OUT: 89 % of control

IN: Given the molecule CC1(c2ccccc2)C(C#N)C(=O)NC(=O)C1C#N (configuration not stated) , write its reported T/C.
OUT: 91 % of control
